Entries annotated with measured Chromogenic (IC50 in nM) rat
- system: T1, rat PAI-1 (rat, UniProt P20961 24-402)
- T1 sequence: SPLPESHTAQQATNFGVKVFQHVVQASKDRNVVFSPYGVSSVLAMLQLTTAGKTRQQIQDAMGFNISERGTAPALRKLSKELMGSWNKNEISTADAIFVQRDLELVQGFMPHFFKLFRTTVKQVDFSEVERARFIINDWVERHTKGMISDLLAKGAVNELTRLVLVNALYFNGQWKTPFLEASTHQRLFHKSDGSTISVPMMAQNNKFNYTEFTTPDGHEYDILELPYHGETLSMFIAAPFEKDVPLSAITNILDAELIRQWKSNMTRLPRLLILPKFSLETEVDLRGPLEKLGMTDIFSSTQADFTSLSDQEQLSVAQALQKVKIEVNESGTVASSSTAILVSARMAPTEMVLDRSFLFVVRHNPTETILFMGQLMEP
- method.description: cell-based or functional assay
The reply should be a number in nM, with the unit left off.

INSERT INTO measurements (binder, unit_string, test_result) VALUES
  ('Antibody 09 scFv (scFv) QVQLQQSGAEVKKPGSSVKVSCKASGGTFSSYAISWVRQAPGQGLEWMGGIIPAFDTANYAQKFQGRVTITADESTSTAYMELSGLRSEDTAVYYCAREKRQWLEGHFDYWGRGTPVTVSSDIQMTQSPSFLSASIGDRVTITCQASEGIYHNLAWYQQKPGKAPKLLIYRASSLASGAPSRFSGSGSGTDFTLTISSLQPDDFATYYCQQYSNYPLTFGGGTKLEIK', 'nM', 29.7);

Q. For the binder shown here, Antibody 13 scFv (scFv) QVQLQQSGAEVKKPGSSVKVSCKASGGTFSSYAISWVRQAPGQGLEWMGGIIPTFGTANYAQKFQGRVTITADESTSTAYMELSDLRSEDTAVYYCAREKRQWLEGHFDYWGRGTPVTVSSDIQMTQSPSFLSASIGDRVTITCRASEGIYHSLAWYQQKPGKAPKLLIYRASSLASGAPSRFSGSGSGTDFTLTISSLQPDDFATYYCQQYSNYPLTFGGGTKLEIK , give the reported Chromogenic (IC50 in nM) rat.
A. 140

Q. For the binder shown here, Antibody 23 scFv (scFv) QVQLQQSGAEVKKPGSSVKVSCKASGGTFSSYAISWVRQAPGQGLEWMGGIIPTFGTANYAQKFQSRVTITADESTSTAYMELSGLRSEDTAVYYCAREKRQWLEGHFDYWGRGTPVTVSSDIQMTQSPSFLSASIGDRVTITCRASEGIYHSLAWYQQKPGKAPKLLIYRASSLASGAPSRFSGSGSGTDFTLTISSLQPDDFATYYCQQYSNYPLTFGGGTKLEIK , give the reported Chromogenic (IC50 in nM) rat.
A. 376

Q. For the binder shown here, Antibody 24 scFv (scFv) QVQLQQSGAEVKKPGSSVKVSCKASGGTFSSYAISWVRQAPGQGLEWMGGIIPTFVTANYAQKFQGRVSITADESTSTAYMELSGLRSEDTAVYYCAREKRQWLEGHFDYWGRGTPVTVSSDIQMTQSPSFLSASIGDRVTITCRASEGIYHALAWYQQKPGKAPKLLIYRASSLASGAPSRFSGSGSGTDFTLTISSLQPDDFATYYCQQYSNYPLTFGGGTKLEIK , give the reported Chromogenic (IC50 in nM) rat.
A. 127

Q. For the binder shown here, Antibody 15 scFv (scFv) QVQLQQSGAEVKKPGSSVKVSCKASGGTFSSYAISWVRQAPGQGLEWMGGIIPTFGTANYAQKFQGRVTITADESTSTAYMELSGLRSEDTAVYYCAREKRQWLEGHFDYWGRGTPVTVSSDIQMAQSPSFLSASIGDRVTITCRASEGIYHNLAWYQQKPGKAPKLLIYRASSLASGAPSRFSGSGSGTDFTLTISSLQPDDFATYYCQQYSNYPLTFGGGTKLEIR , give the reported Chromogenic (IC50 in nM) rat.
A. 64.2
